- assayedTarget: T1, cynomolgus monkey BDCA2 (full-length, cell surface, E73 SNP form) (cynomolgus monkey, UniProt Q8WTT0 1-213 (human entry))
- T1 construct: also called cyno BDCA2; surface cynomolgus monkey BDCA2
- T1 chain: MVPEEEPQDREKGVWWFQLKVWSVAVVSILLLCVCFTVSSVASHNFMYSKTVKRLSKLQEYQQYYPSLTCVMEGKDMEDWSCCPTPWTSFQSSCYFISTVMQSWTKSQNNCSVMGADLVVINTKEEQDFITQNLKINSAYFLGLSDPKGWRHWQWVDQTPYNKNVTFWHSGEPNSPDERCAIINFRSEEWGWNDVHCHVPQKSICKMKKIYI
- experimentSummary: direct binding FACS, conditioned medium on CHO cells co-expressing BDCA2 and FcεRIγ
observedProperty: binding result

- binder: "hu24F4 H4/L2 (antibody, V domains shown, Humanized variant, human IgG1/kappa, conditioned medium of 293E cells; also called H4 series of hu24F4) VH: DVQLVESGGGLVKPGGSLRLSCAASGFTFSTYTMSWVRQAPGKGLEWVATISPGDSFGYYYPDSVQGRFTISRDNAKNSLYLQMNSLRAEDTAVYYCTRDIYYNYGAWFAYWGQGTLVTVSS VL: DIQLTQSPSSLSVSVGDRATISCKASQSVDYDGDSYMNWYQQKPGKAPKLLIYAASTLESGVPSRFSGSGSGTDFTLTISSVQPEDFATYYCQQSNEDPRTFGQGTKVEIK"
  result: "binds"
- binder: "hu24F4 H5/L2 (antibody, V domains shown, Humanized variant, human IgG1/kappa, conditioned medium of 293E cells; also called H5 series of hu24F4) VH: DVQLVQSGGGLVKPGGSLRLSCAASGFTFSTYTMSWVRQAPGKGLEWVATISPGDSFGYYYPDSVQGRFTISRDNAKNSLYLQMNRLRAEDTAVYYCTRDIYYNYGAWFAYWGRGTLVTVSS VL: DIQLTQSPSSLSVSVGDRATISCKASQSVDYDGDSYMNWYQQKPGKAPKLLIYAASTLESGVPSRFSGSGSGTDFTLTISSVQPEDFATYYCQQSNEDPRTFGQGTKVEIK"
  result: "binds"
